- assay_target: human Nav1.7 (Homo sapiens (Human), UniProt Q15858)
- Sequence (Q15858 other isoform, or with tags, fused parts or gaps): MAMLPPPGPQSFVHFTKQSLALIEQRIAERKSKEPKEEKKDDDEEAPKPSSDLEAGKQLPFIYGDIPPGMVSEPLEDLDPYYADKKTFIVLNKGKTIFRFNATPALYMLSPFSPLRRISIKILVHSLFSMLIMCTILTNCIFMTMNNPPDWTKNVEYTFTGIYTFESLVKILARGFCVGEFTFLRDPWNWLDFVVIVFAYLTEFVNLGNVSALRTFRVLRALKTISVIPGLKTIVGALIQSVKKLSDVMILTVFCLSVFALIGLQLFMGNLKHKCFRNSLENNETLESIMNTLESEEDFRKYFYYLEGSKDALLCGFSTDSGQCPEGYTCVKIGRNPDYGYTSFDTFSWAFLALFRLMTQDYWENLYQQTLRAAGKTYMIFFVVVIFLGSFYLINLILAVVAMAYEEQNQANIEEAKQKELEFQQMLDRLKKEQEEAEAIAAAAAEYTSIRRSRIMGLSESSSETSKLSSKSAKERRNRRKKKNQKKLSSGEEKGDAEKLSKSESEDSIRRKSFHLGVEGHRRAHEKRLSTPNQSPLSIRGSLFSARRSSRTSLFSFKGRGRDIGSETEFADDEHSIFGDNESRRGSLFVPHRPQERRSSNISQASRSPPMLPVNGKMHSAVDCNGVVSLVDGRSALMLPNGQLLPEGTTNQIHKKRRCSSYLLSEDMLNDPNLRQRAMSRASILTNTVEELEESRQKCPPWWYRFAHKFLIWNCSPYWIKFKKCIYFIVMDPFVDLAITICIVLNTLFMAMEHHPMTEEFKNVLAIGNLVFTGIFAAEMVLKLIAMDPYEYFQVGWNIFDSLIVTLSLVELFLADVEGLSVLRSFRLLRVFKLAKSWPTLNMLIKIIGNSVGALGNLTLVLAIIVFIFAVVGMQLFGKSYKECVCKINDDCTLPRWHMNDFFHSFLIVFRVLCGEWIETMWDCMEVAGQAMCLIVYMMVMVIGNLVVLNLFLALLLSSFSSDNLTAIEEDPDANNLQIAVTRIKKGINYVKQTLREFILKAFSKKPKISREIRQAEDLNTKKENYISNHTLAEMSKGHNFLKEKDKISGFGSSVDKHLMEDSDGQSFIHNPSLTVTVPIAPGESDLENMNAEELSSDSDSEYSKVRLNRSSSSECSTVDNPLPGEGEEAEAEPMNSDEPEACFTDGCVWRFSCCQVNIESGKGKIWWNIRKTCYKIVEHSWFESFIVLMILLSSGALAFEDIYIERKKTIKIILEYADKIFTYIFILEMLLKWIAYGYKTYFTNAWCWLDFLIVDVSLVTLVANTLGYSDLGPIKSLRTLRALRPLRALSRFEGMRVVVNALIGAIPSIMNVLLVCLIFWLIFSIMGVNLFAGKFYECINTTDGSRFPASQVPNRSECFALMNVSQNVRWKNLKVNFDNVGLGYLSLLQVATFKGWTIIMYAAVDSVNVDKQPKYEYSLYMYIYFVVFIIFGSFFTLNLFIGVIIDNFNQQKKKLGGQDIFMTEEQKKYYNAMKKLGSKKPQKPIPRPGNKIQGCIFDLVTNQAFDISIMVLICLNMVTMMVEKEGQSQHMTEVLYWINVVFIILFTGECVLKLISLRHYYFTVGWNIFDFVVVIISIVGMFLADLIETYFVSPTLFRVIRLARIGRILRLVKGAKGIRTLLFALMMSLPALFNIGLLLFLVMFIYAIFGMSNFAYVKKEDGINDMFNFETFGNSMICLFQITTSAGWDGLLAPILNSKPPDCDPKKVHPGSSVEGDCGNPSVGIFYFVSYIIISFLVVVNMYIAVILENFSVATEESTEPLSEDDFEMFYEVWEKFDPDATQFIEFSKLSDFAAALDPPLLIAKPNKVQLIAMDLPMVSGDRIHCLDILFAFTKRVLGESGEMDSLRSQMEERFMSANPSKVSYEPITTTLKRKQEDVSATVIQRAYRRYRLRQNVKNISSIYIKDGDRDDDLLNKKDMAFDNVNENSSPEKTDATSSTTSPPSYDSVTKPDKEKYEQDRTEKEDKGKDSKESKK
- run_description: FLIPR sodium dye assay (CoroNa Green) with KCl and test article pre-incubation
- Format: cell-based
- condition_info: read-out: Nav1.7 Activity FLIPR assay IC50
measured_endpoint: IC50 (nM)
# output: bare number, implied unit nM

Task: Find the measured IC50 of `C[C@@H](Nc1cc(C(N)=O)nc(-c2ccc(Oc3ccc(F)cc3)cc2)n1)C(N)=O` and report it.
Output: 600

Task: Find the measured IC50 of `C[C@H](Nc1cc(C(N)=O)nc(-c2ccc(Oc3ccc(Cl)cn3)cc2)n1)C(N)=O` and report it.
Output: 790

Task: Find the measured IC50 of `C[C@H](Nc1cc(C(N)=O)nc(-c2ccc(Oc3ccc(Cl)cc3F)cc2)n1)C(N)=O` and report it.
Output: 180
